Test system: CCRF-CEM
MEASUREMENT DESCRIPTION: NCI tumour cell line growth inhibition, 48 h
The source made the active and inactive calls. Cut-off read from the data, not from the text of the source: active = GI50 up to about 1.1 µM and inactive = higher.
Pick from true (1) (active), false (0) (inactive) when you respond.

O=c1[nH]cnc2[nH]nnc12: true (1)
NNC(=O)N/N=C(/CC1(O)C(=O)Nc2ccc(Br)cc21)c1ccccc1 (configuration not stated): false (0)
CC(C)(C)c1cc(S(=O)(=O)O)c2oc(-c3ccccc3)cc(=O)c2c1: false (0)
CCOC(=O)C1=C(C)C(C(=O)OC)/C(=C/c2cccc3cccnc23)C1=O (configuration not stated): false (0)

Hi team, can someone confirm the assay call for NC1N=C(c2ccc(Cl)cc2)C2=C(N1)c1ccccc1CC2 (configuration not stated) ?
false (0)

Just curious, what result did "CSc1nn(C)cc2ncnc1-2" get here?
false (0)

Please share the test call associated with "CC(C)(C)c1cc(C(C)(C)C)c2c(c1O)OC(=O)CS2" .
false (0)

Returns: the outcome recorded for CC(O)c1c2c(cc3c1CC1(C3)Cc3cc4c(c(C(C)O)c3C1)CCC4)CCC2 (configuration not stated) in this assay.
false (0)

I'd appreciate the recorded outcome for "CN(C)Cc1cc(/C(=C(\C#N)c2ccccc2)c2ccc(O)cc2)ccc1O" from this test.
false (0)
